B1: library; a variant is named by its letters at N, in order (parent)
chain: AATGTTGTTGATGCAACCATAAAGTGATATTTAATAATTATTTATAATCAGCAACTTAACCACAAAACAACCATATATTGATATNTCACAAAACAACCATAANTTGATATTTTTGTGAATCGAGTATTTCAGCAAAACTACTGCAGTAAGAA

Variants of: B1
Test: relative integration efficiency (T-RL orientation) vs wild-type transposon end (log2 (normalized fold change)); transposon end mutated: left end; higher = more efficient transposition
Conditions: with VchCAST RNA-guided transposition machinery (E. coli BL21(DE3) host, lacZ target)
Give rule met when the value for relative integration efficiency (log2) is at least -0.2. Give rule not met when it is less.

• CG G4T T5G = rule not met
• GG T84A T86A C87G = rule met
• CC A23T A77T = rule not met
• CG T43A A44T T45A A46T = rule met
• CG C94A A95C = rule not met
• CG A15C = rule met
• CG T116G G117T = rule not met
• TA A16C G24T T30A T76A T78G C87A A96C T112G T113C = rule not met
• CG T112G T113G T114G G115T = rule not met
• CG A67G = rule not met
• CG G10A = rule met
• CG C18A C72A C98A = rule not met
• CG T38A = rule met
• CG T12A G13C = rule met
• CG A40C T41G T42G T43G = rule met
• CG A2T = rule met
• CG A19C T20G A21C A22C = rule not met
• TA T76A T78G C87A T104A T110A T113A = rule not met
• CG A54T = rule met
• CG A33C = rule met
• CG A75T T76A = rule met
• CG A70T C71G C72G A73T = rule not met
• CG G13T C14A = rule not met
• CT T100G A101C A102C = rule not met
• CG A46G = rule met
• CG T113G T114G G115T T116G = rule met
• CG T38G T39G A40C T41G = rule met
• TG A16C G24T T30A T76A A77G C87T = rule not met
• CG G13T C14A A15C A16C = rule not met
• CG A102G = rule not met
• TG A22T G24T T31C A33C A70C T76A T86G = rule not met
• CG A101C = rule not met
• CG T42G = rule met
• CG G26T A27C = rule not met

The measured values listed here are drawn from the supplement of paper PMC10201428.
